molecular target: UniProtKB Q86VL8; experiment: Uptake ratio in MATE2K-overexpressing HEK293 cells vs empty vector (2.5 μM, 1 min, HPLC-MS/MS); assay type: cell-based
Quick rule for you: MATE2K ratio in this study under 5 gets T, anything else gets F.

Study these solved cases before continuing.
Molecule | Category
C1CCN2C[C@H]3C[C@H](CN4CCCC[C@@H]34)[C@H]2C1 [Sparteine (-), Sparteine] | T
CCCC[N+]1(C)[C@@H]2C[C@@H](OC(=O)[C@H](CO)c3ccccc3)C[C@H]1[C@@H]1O[C@@H]12 (stereo partly drawn) [Butylscopolamine] | T

Request: I wonder whether O=C(O[C@H]1C[C@H]2CC[C@@H](C1)[N+]21CCCC1)C(O)(c1ccccc1)c1ccccc1 [Trospium] has MATE2K ratio in this study below 5. Can you tell?
Response: F

Request: I wonder whether CC(Cc1ccc(O)cc1)NCC(O)c1cc(O)cc(O)c1 (stereo not drawn) [Fenoterol] has MATE2K ratio in this study below 5. Can you tell?
Response: F

Request: I wonder whether CC[N+](CC)(CC)CC [Tetraethyl ammonium (TEA), Tetraethyl ammonium] has MATE2K ratio in this study below 5. Can you tell?
Response: F

Request: I wonder whether C[n+]1ccc(-c2ccccc2)cc1 [1-Methyl-4-phenylpyridinium] has MATE2K ratio in this study below 5. Can you tell?
Response: F

----------
biological target: MATE2K (Homo sapiens, UniProt Q86VL8); experiment: Uptake ratio in MATE2K-overexpressing HEK293 cells vs empty vector (2.5 μM, 1 min, HPLC-MS/MS); format: cell-based; settings: Table S1; 2.5 μM, 1 min
Sequence (Q86VL8 1-566 isoform Q86VL8-3): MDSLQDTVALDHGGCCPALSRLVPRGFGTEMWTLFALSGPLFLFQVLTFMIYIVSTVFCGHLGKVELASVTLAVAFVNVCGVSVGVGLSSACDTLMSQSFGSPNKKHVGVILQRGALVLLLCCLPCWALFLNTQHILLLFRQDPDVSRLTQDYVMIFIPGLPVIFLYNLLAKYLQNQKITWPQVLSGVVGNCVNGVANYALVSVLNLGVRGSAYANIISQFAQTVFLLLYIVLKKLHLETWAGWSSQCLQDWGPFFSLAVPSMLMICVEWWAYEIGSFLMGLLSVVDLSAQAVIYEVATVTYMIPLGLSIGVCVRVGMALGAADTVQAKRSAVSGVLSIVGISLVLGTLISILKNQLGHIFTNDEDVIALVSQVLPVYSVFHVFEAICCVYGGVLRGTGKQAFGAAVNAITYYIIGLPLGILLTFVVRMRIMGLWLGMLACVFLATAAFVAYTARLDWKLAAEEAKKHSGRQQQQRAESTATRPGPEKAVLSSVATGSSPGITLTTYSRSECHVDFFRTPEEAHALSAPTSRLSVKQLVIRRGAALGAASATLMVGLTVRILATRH
Documented MATE2K ratio in this study across a set of molecules
Answer field: number only, no words.

Request: Return reported MATE2K ratio in this study; argument: CC(C)(C)NCC(O)c1ccc(O)c(CO)c1 [Salbutamol (R), Salbutamol]
Response: 3.74

Request: Return reported MATE2K ratio in this study; argument: `Nc1ccn([C@@H]2O[C@H](CO)[C@@H](O)C2(F)F)c(=O)n1`
Response: 1.08

Request: Return reported MATE2K ratio in this study; argument: `CN1CC(=O)NC1=N`
Response: 1.07

Request: Return reported MATE2K ratio in this study; argument: `C[C@@H]1CCN(C(=O)CC#N)C[C@@H]1N(C)c1ncnc2[nH]ccc12`
Response: 1.41

Request: Return reported MATE2K ratio in this study; argument: `Cc1ncc(C[n+]2csc(CCO)c2C)c(N)n1`
Response: 10.63

----------
target: MATE2K (Homo sapiens); assay: Uptake ratio in MATE2K-overexpressing HEK293 cells vs empty vector (2.5 μM, 1 min, HPLC-MS/MS); format: cell-based; details: fold uptake over empty vector, 2.5 μM, 1 min
Documented MATE2K ratio across a set of molecules
Answer field: number only, no words.

Molecule | Measured value
CNC(=O)c1cccnc1 [Methylnicotinamide, N-Methylnicotinamide] | 5.40
NCCc1ccccc1 | 1.43
O=C(c1ccc(OCCN2CCCCC2)cc1)c1c(-c2ccc(O)cc2)sc2cc(O)ccc12 | 1.12
CCCOC(C(=O)OC1CCN(C)CC1)(c1ccccc1)c1ccccc1 | 1.07
Cc1cc(O)cc(C)c1OCC(C)N (stereo not shown) [4-Hydroxymexiletine] | 1.42
CC(C)(CO)[C@@H](O)C(=O)NCCC(=O)O | 1.71
CN1CCc2cccc3c2[C@H]1Cc1ccc(O)c(O)c1-3 | 1.02
NCC(O)c1cccc(O)c1 (stereo not shown) | 1.22

Request: Return reported MATE2K ratio; argument: `N=C(N)NCCCCNC(=N)N`
Response: 16.29

Request: Return reported MATE2K ratio; argument: `CC(C)C[C@H](N)C(=O)O`
Response: 1.06
